Cited source for all entries: patent US20230398130A1

# Test system: ISC-enriched organoids
# assay.name: Primary screen, 384-well 2.5-D organoid differentiation (ENR+CD, 6 days): carbachol-induced lysozyme secretion (LYZ.S)
# Format: cell-based, murine
# assay.setup: dose 10.00 uM (4th of 4 lines per treatment; dose not printed in this part)
# From the text: High-throughput screening.
test.readout: Z.LYZ.S (standard z score)
// return just the number, without any unit appended

Observe how each entry below is paired with its result.
1) C=C1C(=O)O[C@H]2[C@H]1CC/C(C)=C/CC[C@@]1(C)O[C@@H]21 [(−)-Parthenolide] | 0.530
2) C[C@H](Oc1cc(-c2cnn(C3CCNCC3)c2)cnc1N)c1c(Cl)ccc(F)c1Cl [(S)-crizotinib] | −0.720
3) CN1CCc2cc3c(cc2[C@H]1[C@@H]1OC(=O)c2c1ccc1c2OCO1)OCO3 [(+)-Bicuculline] | 0.465

// below: Z.LYZ.S (standard z score) requested for another compound
Req: Using the record for COc1cc2c(cc1O)CC[C@@H]1[C@@H]2CC[C@]2(C)[C@@H](O)CC[C@@H]12 , state its measured Z.LYZ.S (standard z score).
Resp: −1.795

---

# Tested on: ISC-enriched organoids
# assay.name: Primary screen, 384-well 2.5-D organoid differentiation (ENR+CD, 6 days, Target Selective Inhibitor Library, vs whole-plate median): ATP (CellTiter-Glo 3D, CTG)
# assay.setup: Dose 2.00 uM; standard z score of FC
Catalogue of compounds with associated Z.CTG
// return just the number, without any unit appended

Observe how each entry below is paired with its result.
1) OC(CNCC(O)C1CCc2cc(F)ccc2O1)C1CCc2cc(F)ccc2O1 (stereo not drawn) | 0.746
2) CC1C(=O)OC2C(O)C34C5CC(C(C)(C)C)C36C(OC(=O)C6O)OC4(C(=O)O5)C12O (stereo not drawn) [Ginkgolide B] | −0.369
3) C=CC(=O)Nc1cccc(Nc2nc(Nc3ccc(Oc4ccnc(C(=O)NC)c4)cc3)ncc2F)c1 | −0.260
4) C[C@]1(O)C[C@@H](c2nc(-c3ccc4ccc(-c5ccccc5)nc4c3)c3c(N)nccn32)C1 | −0.661
5) COc1ccc2nc([S@@+]([O-])Cc3ncc(C)c(OC)c3C)[nH]c2c1 [Esomeprazole Sodium] | 0.923

// below: Z.CTG requested for another compound
Req: Using the record for O=C(Nc1cccc(Nc2ncc(Br)c(NCCc3cnc[nH]3)n2)c1)N1CCCC1 , state its measured Z.CTG.
Resp: −0.587

---

# System: ISC-enriched organoids
# assay.name: Primary screen, 384-well 2.5-D organoid differentiation (ENR+CD, 6 days): carbachol-induced lysozyme secretion (LYZ.S)
# Assay type: cell-based, murine
# assay.setup: Dose 0.40 uM; ENR+CD, 6 days; FC vs plate median
test.readout: Dose.FC.LYZ.S (log 2 fold change)
Answer in log 2 fold change, number only, no unit symbol.

1) O=C(Nc1cccc(Nc2ncc(Br)c(NCCc3cnc[nH]3)n2)c1)N1CCCC1 | 0.042
2) O=c1[nH]c2ccc(Cl)cc2c(N[C@@H]2CN3CCC2CC3)c1-c1nc2ccccc2[nH]1 | −0.339
3) CCCCCCCCc1ccc(CCC(N)(CO)CO)cc1.Cl [Fingolimod (FTY720) HCl] | 0.077
4) CC(C)c1cc(-c2n[nH]c(=O)n2-c2ccc3c(ccn3C)c2)c(O)cc1O [Ganetespib (STA-9090)] | −0.250
5) COc1cccc(C=NCCN=Cc2cccc(OC)c2[O-])c1[O-].[Cl-].[Mn+3] | 0.057

Req: Using the record for COc1ccc(C[C@@H](C)NC[C@H](O)c2ccc(O)c(NC=O)c2)cc1.COc1ccc(C[C@@H](C)NC[C@H](O)c2ccc(O)c(NC=O)c2)cc1.O=C(O)/C=C/C(=O)O [Formoterol Hemifumarate] , state its measured Dose.FC.LYZ.S.
Resp: 0.293

Req: Using the record for NC(=O)C1CCCc2c1[nH]c1ccc(Cl)cc21 (stereo not shown) [EX 527 (Selisistat)] , state its measured Dose.FC.LYZ.S.
Resp: 0.047

Req: Using the record for CC(C)C[C@H](NC(=O)[C@@H](NC(=O)c1cccc(-c2ccccc2)n1)[C@@H](C)O)B(O)O , state its measured Dose.FC.LYZ.S.
Resp: −0.159

Req: Using the record for C=CC(=O)Nc1cccc(Nc2nc(Nc3ccc(Oc4ccnc(C(=O)NC)c4)cc3)ncc2F)c1 , state its measured Dose.FC.LYZ.S.
Resp: −0.027

Req: Using the record for Nc1ncnc2n[nH]c(Nc3ccc(F)cc3)c12 , state its measured Dose.FC.LYZ.S.
Resp: 0.054

---

# Tested on: ISC-enriched organoids
# assay.name: Primary screen, 384-well 2.5-D organoid differentiation (ENR+CD, 6 days): carbachol-induced lysozyme secretion (LYZ.S)
# Format: cell-based, murine
# assay.setup: dose 0.08 uM (1st of 4 lines per treatment; dose not printed in this part)
Catalogue of compounds with associated Z.LYZ.S (standard z score)
// return just the number, without any unit appended

Observe how each entry below is paired with its result.
1) O=C(O)c1ccc(N2C(=O)/C(=C\c3ccc(-c4ccc([N+](=O)[O-])cc4)o3)C=C2c2ccccc2)cc1 | 0.690
2) CC1(C)CCC(c2ccc(Cl)cc2)=C(CN2CCN(c3ccc(C(=O)NS(=O)(=O)c4ccc(N[C@H](CCN5CCOCC5)CSc5ccccc5)c(S(=O)(=O)C(F)(F)F)c4)cc3)CC2)C1 | −0.064
3) C=CCNC1=C2C[C@@H](C)C[C@H](OC)[C@H](O)[C@@H](C)/C=C(\C)[C@H](OC(N)=O)[C@@H](OC)/C=C\C=C(/C)C(=O)NC(=CC1=O)C2=O | −1.826
4) CN1CCc2cc3c(cc2[C@H]1[C@@H]1OC(=O)c2c1ccc1c2OCO1)OCO3 [(+)-Bicuculline] | 1.005

// below: Z.LYZ.S (standard z score) requested for another compound
Req: Using the record for COc1cc2c(cc1O)CC[C@@H]1[C@@H]2CC[C@]2(C)[C@@H](O)CC[C@@H]12 , state its measured Z.LYZ.S (standard z score).
Resp: 1.224

---

# Test system: ISC-enriched organoids
# assay.name: Primary screen, 384-well 2.5-D organoid differentiation (ENR+CD, 6 days): carbachol-induced lysozyme secretion (LYZ.S)
# Assay type: cell-based, murine
# assay.setup: Dose 2.00 uM; ENR+CD, 6 days; FC vs plate median
Dose.FC.LYZ.S less than 0.03 log 2 fold change is class 1; Dose.FC.LYZ.S greater than or equal to 0.03 log 2 fold change is class 0.

These recorded examples may help you get a feel for the data.
1) O=C(NC(NC(=S)Nc1ccc(F)c([N+](=O)[O-])c1)C(Cl)(Cl)Cl)C(c1ccccc1)c1ccccc1 (stereo not drawn) | class 1
2) Cc1ccc2c(=O)c3cccc(CC(=O)O)c3oc2c1C | class 1
3) CCOC(=O)c1ccc(NC2CCCCC2)c(N)c1 | class 0
4) CCCCCCCCc1ccc(CCC(N)(CO)CO)cc1.Cl [Fingolimod (FTY720) HCl] | class 1
5) CC1C(=O)OC2C(O)C34C5CC(C(C)(C)C)C36C(OC(=O)C6O)OC4(C(=O)O5)C12O (stereo not drawn) [Ginkgolide B] | class 0

Req: Given OC[C@H]1O[C@@H](c2ccc(Cl)c(Cc3ccc(O[C@H]4CCOC4)cc3)c2)[C@H](O)[C@@H](O)[C@@H]1O , is recorded Dose.FC.LYZ.S strictly lower than 0.03 log 2 fold change?
Resp: class 1

---

# Test system: ISC-enriched organoids
# assay.name: Primary screen, 384-well 2.5-D organoid differentiation (ENR+CD, 6 days): carbachol-induced lysozyme secretion (LYZ.S)
# Type: cell-based, murine
# assay.setup: standard z score; primary screen; 3rd of the 4 dose lines of the treatment (dose not given)
test.readout: Z.LYZ.S
// return just the number, without any unit appended

Observe how each entry below is paired with its result.
1) CC(C)CCNC(=O)[C@H](CC(C)C)NC(=O)[C@H]1O[C@@H]1C(=O)O [Loxistatin Acid (E-64C)] | 0.238
2) O=C(c1cn(Cc2cncn2Cc2ccc(Br)cc2)cc1-c1cccc2ccccc12)N1CCOCC1 | −1.539
3) CN(Cc1cnc2nc(N)nc(N)c2n1)c1ccc(C(=O)N[C@@H](CCC(=O)O)C(=O)O)cc1 [Methotrexate] | −1.143
4) COc1cc(-n2c(=S)[nH]c3ccccc3c2=O)c(Cl)cc1Cl | −0.310
5) Cc1cc(Nc2cc(CN3CCOCC3)c3nc(C)c(Cc4ccc(Cl)cc4F)n3n2)n[nH]1 | 0.737

Req: Look up ISC-enriched organoids data: Z.LYZ.S of NC(=O)c1ccc(I)c([N+](=O)[O-])c1 , then report it.
Resp: −0.006

Req: Look up ISC-enriched organoids data: Z.LYZ.S of CCn1c(=O)c2c(nc(/C=C/c3ccc(OC)c(OC)c3)n2C)n(CC)c1=O , then report it.
Resp: −0.621

Req: Look up ISC-enriched organoids data: Z.LYZ.S of O=C(C[S+]([O-])Cc1ccco1)NC/C=C\COc1cc(CN2CCCCC2)ccn1 (centres unmarked) , then report it.
Resp: 0.491

Req: Look up ISC-enriched organoids data: Z.LYZ.S of Nc1nc(OCc2cc(Br)cs2)c2[nH]cnc2n1 , then report it.
Resp: −0.356
